The measurements presented in this section are drawn from patent US10004739B2.

# Test system: FGFR3-TACC3_v1 (N-FLAG) fusion polypeptide
# test.name: In vitro kinase activity of FGFR3-TACC3_v1 (N-FLAG) fusion polypeptide (HTRF KinEASE-TK, peptide substrate)
# Type: biochemical, human
# stated.conditions: final concentration 1 nM; ATP 100 μM
property: Inhibition against peptide substrate FGFR3-TACC3 v1 (%)

[[record]]
compound = "C[C@@H](Oc1ccc2[nH]nc(/C=C/c3cnn(CCO)c3)c2c1)c1c(Cl)cncc1Cl [LY2874455, reference compound]"
recorded_measurement = 46

[[record]]
compound = "CCN1CCN(c2ccc(Nc3cc(N(C)C(=O)Nc4c(Cl)c(OC)cc(OC)c4Cl)ncn3)cc2)CC1 [BGJ398]"
recorded_measurement = 26

[[record]]
compound = "COc1cc(OC)c(F)c(COc2cnc(Nc3ccc(N4CCN(C)CC4)cc3)nc2)c1F [Compound D]"
recorded_measurement = 34

[[record]]
compound = "COc1cc(CCc2cc(NC(=O)c3ccc(N4C[C@@H](C)N[C@@H](C)C4)cc3)[nH]n2)cc(OC)c1 [AZD4547]"
recorded_measurement = 13

[[record]]
compound = "COc1cc(OC)c(F)c(COc2cnc(Nc3cc(CN4CCN(C)CC4)n(C)n3)nc2)c1F [Compound E]"
recorded_measurement = 7

